test: Human HepG2 cell viability assay in 384 well format; format: toxicity, cell-based; parameters: dose 125 nL, time 70.5 hour; concentration not given beside the values; settings: HepG2 cells, read-out: Inhibition
Below, each entry is listed alongside its reported cytotoxicity at 70.5 h.

# Compound, Readout units, cytotoxicity at 70.5 h
rows = [
    ("O=C(CN1CCCc2sccc2C1=O)NC1CCc2nccn2C1 (configuration not stated)", "%", 23.3),
    ("CN1CCN(c2ncnc3c2CCN(S(=O)(=O)C2CC2)CC3)CC1", "%", -11.6),
    ("CCCc1cc(C(=O)N(C)Cc2cnc3ccccc3n2)n(C)n1", "%", -4.51),
    ("O=C(C1CCOCC1)N1CC[C@@H](O)[C@@H]1Cc1ccccc1", "%", 1.56),
    ("CC1c2ncc(COCC3CC3)n2CCN1S(=O)(=O)N(C)C (configuration not stated)", "%", -1.15),
    ("Cc1nccn1-c1ncccc1CNC(=O)c1ccc(O)nc1", "%", -10.6),
    ("OCCN1CCC2(CCc3cc(-c4ccoc4)ccc32)CC1", "%", -2.95),
    ("COc1ccc(CN2CCN(S(=O)(=O)c3cc(C(=O)O)cs3)CC2)cc1", "%", -18.9),
    ("CN(C)C(=O)c1cc2ncc(C(=O)NC3CCCC3)cc2n1C", "%", -0.145),
    ("CC(=O)N(C)CC(=O)Nc1cccc(N2CCN(CC3CC3)CC2)c1", "%", -7.37),
    ("COCCCSc1ccc(NCc2scnc2C)cc1", "%", -0.225),
    ("Cc1cc(NC(=O)NCC2CCOC2)no1 (configuration not stated)", "%", -11.6),
]

----------
test: Human HepG2 cell viability assay in 384 well format; type: toxicity, cell-based; design: dose 125 nL, time 70.5 hour; concentration not given beside the values; details: HepG2 cells, read-out: Inhibition
Outcome measure: cytotoxicity at 70.5 h (%)

# Compound, Outcome measure, Data value
records = [
    ("CCCNc1nc(CS(=O)(=O)c2ccccc2)cs1", "cytotoxicity at 70.5 h", -7.26),
    ("Cc1cc(C)n(C2CCCN(C(=O)CCNS(C)(=O)=O)C2)n1 (centres undefined)", "cytotoxicity at 70.5 h", 14.9),
    ("O=C1[C@H]2CN(CC3CC3)C[C@H]2CN1c1ccsc1", "cytotoxicity at 70.5 h", -3.2),
    ("COc1ccc(S(=O)(=O)NCCC(O)c2cc(C)oc2C)c(C)c1 (centres undefined)", "cytotoxicity at 70.5 h", -5.42),
    ("CN(C)C(=O)c1nc(-c2ccc(S(C)(=O)=O)cc2)c2cnccn12", "cytotoxicity at 70.5 h", -6.88),
    ("Cn1cc(CNCC2(O)CCCCC2)c(-c2cccnc2)n1", "cytotoxicity at 70.5 h", -4.88),
    ("CCC(CC)NCC(c1ccccn1)N1CCOCC1 (centres undefined)", "cytotoxicity at 70.5 h", 2.77),
    ("CCS(=O)(=O)N1CCc2cc(C(=O)NC)c(NCC3CC3)nc2CC1", "cytotoxicity at 70.5 h", -4.13),
    ("Cc1noc(C)c1S(=O)(=O)N1CCC(Oc2ccccn2)CC1", "cytotoxicity at 70.5 h", 10),
    ("Cc1nnc(C(C)Nc2cccc(COCCc3ccccc3)c2)o1 (centres undefined)", "cytotoxicity at 70.5 h", -8.73),
    ("CCN1CC2(CCC1=O)CCN(Cc1cccc(C#N)c1)CC2", "cytotoxicity at 70.5 h", -4.47),
    ("Cc1ccccc1CSc1nc(N)cc(N2CCC(CC(N)=O)CC2)n1", "cytotoxicity at 70.5 h", -3.38),
    ("Cc1ccc(C2CN(Cc3cnc(-c4cccnc4)s3)CCO2)o1 (centres undefined)", "cytotoxicity at 70.5 h", 7.31),
    ("CCNc1ncc(C(=O)NC(CCN(C)C)c2ccccc2)cn1 (centres undefined)", "cytotoxicity at 70.5 h", 26.8),
    ("CCc1ccccc1OC1CN(CC2CCOC2)C1 (centres undefined)", "cytotoxicity at 70.5 h", 29.4),
    ("CCOC(=O)C1CSCCN1C(=O)c1ccc(-n2nc(C)cc2C)cc1 (centres undefined)", "cytotoxicity at 70.5 h", 3.47),
    ("Cc1nn(C)c(N(C)C)c1CNC(C)COc1ccc(F)cc1F (centres undefined)", "cytotoxicity at 70.5 h", -8.01),
    ("O=C(Cc1ccsc1)N1C[C@@H]2OCCN(CC3CCCO3)[C@@H]2C1 (some centres undefined)", "cytotoxicity at 70.5 h", 7.05),
    ("O=C(COC1CCCC1)NS(=O)(=O)c1ccc2c(c1)OCCCO2", "cytotoxicity at 70.5 h", -6.27),
    ("COCCc1ncc(CN2C[C@@H](C(=O)O)[C@H](C(C)C)C2)cn1", "cytotoxicity at 70.5 h", 14.1),
    ("CCc1ccccc1CNC(=O)CNCC(F)(F)F", "cytotoxicity at 70.5 h", -2.89),
    ("CNS(=O)(=O)c1ccc(CNC(=O)NCc2cc[nH]n2)cc1", "cytotoxicity at 70.5 h", -12.9),
    ("CN(C(=O)c1cccn1C)C1CCC(NC(=O)OC(C)(C)C)CC1 (centres undefined)", "cytotoxicity at 70.5 h", -9.69),
    ("CCn1c(NCc2ccccc2)nc2c(C)nn(C)c2c1=O", "cytotoxicity at 70.5 h", -9.48),
]

The measurements presented in this section are drawn from ChEMBL document CHEMBL3507680.
